Experiment: NCI Yeast Anticancer Drug Screen. Data for the mec2-1 strain (AID 157)
Conditions: S. cerevisiae mec2-1 strain, at 11.0 µM
The panel holds about 79,000 compounds, 15% with a hit somewhere; the sample as a whole holds those more often. Calls of active or inactive are those of the source. No stated cut-off is given here; in the data, active means growth inhibition above about 70%; inactive means the rest.
A correct response names exactly one class from active, inactive

Compound: COc1ccc(C2C3=C(COC3=O)OC(C)(C)Oc3cc4c(cc32)OCO4)cc1OC (stereo not given)
Label Value: inactive
//
Compound: COc1nc2c(c(=O)n1C)N=C(c1ccccc1)[C@H](C(CC(=O)c1ccccc1)c1ccccc1)C(c1ccccc1)N2 (stereo not given in full)
Label Value: inactive
//
Compound: Cc1ccc(Sc2ccccc2N)cc1
Label Value: inactive

Please state the recorded outcome for this compound: O=c1ccc2ccccc2c2ccccc12 active

Queued: CC(=O)OC1CC2C(C)(C)C(=O)C=C[C@]2(C)C2CCC3(C)C(=CCC3[C@H](CO)C[C@H](O)C(=O)C(C)(C)O)[C@]12C (stereo not given in full) inactive

Queued: CCOC1Oc2ccccc2-c2nc(N)ncc21 (stereo not given) inactive

Queued: Oc1[nH]c2ccccc2c1N=NC(=S)N1CCCCC1 inactive

Queued: CCOC(=N)c1ccc(O)c(OC)c1 inactive

Cited source: PubChem BioAssay (NCI)
